# Assay Target: Transient receptor potential cation channel subfamily M member 8 (Homo sapiens)
# Sequence (Q7Z2W7 whole entry): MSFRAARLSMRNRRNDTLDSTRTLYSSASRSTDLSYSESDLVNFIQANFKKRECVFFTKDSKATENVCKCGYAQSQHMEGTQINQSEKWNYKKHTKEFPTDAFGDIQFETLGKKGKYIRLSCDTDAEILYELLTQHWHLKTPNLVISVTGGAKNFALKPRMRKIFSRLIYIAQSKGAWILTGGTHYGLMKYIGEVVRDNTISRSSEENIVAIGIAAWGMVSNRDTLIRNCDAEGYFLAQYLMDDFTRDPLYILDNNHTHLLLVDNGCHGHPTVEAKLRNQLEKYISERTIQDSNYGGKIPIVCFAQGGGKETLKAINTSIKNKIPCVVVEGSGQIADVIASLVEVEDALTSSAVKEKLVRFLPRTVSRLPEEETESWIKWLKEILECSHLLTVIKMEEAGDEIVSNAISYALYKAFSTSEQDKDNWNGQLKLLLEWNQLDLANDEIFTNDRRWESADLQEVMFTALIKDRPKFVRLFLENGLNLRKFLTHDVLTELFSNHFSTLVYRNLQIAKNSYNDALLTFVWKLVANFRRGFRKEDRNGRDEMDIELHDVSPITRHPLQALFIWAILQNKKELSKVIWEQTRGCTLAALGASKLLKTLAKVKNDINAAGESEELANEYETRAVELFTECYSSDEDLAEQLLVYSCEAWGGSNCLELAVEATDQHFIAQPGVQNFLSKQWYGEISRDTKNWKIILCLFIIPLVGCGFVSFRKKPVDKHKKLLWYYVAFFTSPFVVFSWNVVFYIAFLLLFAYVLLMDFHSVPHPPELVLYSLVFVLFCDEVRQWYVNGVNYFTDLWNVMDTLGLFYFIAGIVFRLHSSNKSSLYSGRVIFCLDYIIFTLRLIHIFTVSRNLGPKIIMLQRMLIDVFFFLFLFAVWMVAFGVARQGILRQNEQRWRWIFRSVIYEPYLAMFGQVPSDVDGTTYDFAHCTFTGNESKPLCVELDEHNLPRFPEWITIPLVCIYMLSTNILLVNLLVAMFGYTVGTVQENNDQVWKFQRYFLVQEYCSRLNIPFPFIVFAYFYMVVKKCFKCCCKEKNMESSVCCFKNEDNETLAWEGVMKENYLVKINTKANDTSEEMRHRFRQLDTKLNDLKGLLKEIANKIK
# Assay Explanation: Agonist activity at human TRPM8 expressed in HEK293 cells assessed as increase in intracellular calcium level after 15 mins by Fluo-3-AM dye-based fluorescence assay
# Format: cell-based
# Particulars: read-out: EC50
Readout: EC50 (µM)

Worked cases, EC50 given:
Cc1ccc(OCC(=O)N(Cc2cccs2)c2nccs2)cc1 : 2.24
Cc1ccc(OCC(=O)N(Cc2cccs2)CC(C)C)cc1 : 0.9

a: CCN(Cc1cccs1)C(=O)COc1ccc(C(F)(F)F)cc1
b: CCN(Cc1cccs1)C(=O)COc1ccc2c(c1)CCCC2
c: CCN(Cc1cccnc1)C(=O)COc1ccc(C)cc1
Request: Thanks in advance: please rank these 3 entries by EC50, highest to lowest. Output spec: labels arranged per the requested ranking.
Result: c, b, a
(c: 15.4 µM, b: 0.689 µM, a: 0.236 µM)

----------
# Assay Explanation: Stability of the compound in pH 2.8 citric acid assessed as compound remaining after heating at 100 degC for 24 hrs
# Assay type: physicochemical
# Particulars: read-out: Stability
Readout: remaining at 24 h (%)

P: Cc1ccc(OCC(=O)N(Cc2cccs2)c2ncco2)cc1
Q: Cc1ccc(OCC(=O)N(Cc2cccs2)c2ccon2)cc1
Request: Parameter metric = remaining at 24 h. Return the lower-valued option from P and Q . Answer by stating the label of the chosen item.
Result: P

----------
# Assay Target: Transient receptor potential cation channel subfamily M member 8 (Homo sapiens)
# Assay Explanation: Agonist activity at human TRPM8 expressed in HEK293 cells assessed as increase in intracellular calcium level after 15 mins by Fluo-3-AM dye-based fluorescence assay
# Format: cell-based
# Particulars: read-out: EC50
Readout: EC50 (nM)

CCC(C)N(Cc1cccs1)C(=O)COc1ccc(C)cc1 (stereo unspecified) : 2000

a: Cc1ccc(OCC(=O)N(Cc2cccs2)c2nccn2C)cc1
b: Cc1ccc(OCC(=O)N(Cc2cccs2)c2ccn(C)n2)cc1
c: CCN(Cc1cccs1)C(=O)COc1ccc2c(c1)CCC2
d: CCCN(Cc1cccs1)C(=O)COc1ccc(C)cc1
e: CCN(Cc1cccs1)C(=O)COc1cc(C)ccc1O
Request: Thanks in advance: please rank these 5 entries by EC50, highest to lowest. Output spec: labels arranged per the requested ranking.
Result: a, b, d, e, c
(a: 1790 nM, b: 855 nM, d: 40 nM, e: 24 nM, c: 0.8 nM)

a: CCCc1ccc(OCC(=O)N(CC)Cc2cccs2)cc1
b: COc1ccc2oc(C(=O)N(Cc3cccs3)c3ccn[nH]3)cc2c1
Request: Parameter metric = EC50. Return the lower-valued option from a and b . Answer by stating the label of the chosen item.
Result: b

1: Cc1ccc(OCC(=O)N(Cc2cccs2)c2cn[nH]c2)cc1
2: Cc1ccc(OCC(=O)N(Cc2cccs2)c2cnccn2)cc1
Request: Parameter metric = EC50. Return the lower-valued option from 1 and 2 . Answer by stating the label of the chosen item.
Result: 1

----------
# Assay Explanation: Thermodynamic solubility of the compound in pH 7.1 phosphoric buffer
# Type: physicochemical
# Particulars: read-out: Therm_solubility
Readout: solubility thermodynamic (µM)

Worked cases, solubility thermodynamic given:
CCN(Cc1cccs1)C(=O)COc1ccc2c(c1)CCC2 : 85
O=C(COc1ccc2c(c1)CCC2)N(Cc1cccs1)c1ccn[nH]1 : 26
CCN(Cc1cccs1)C(=O)c1cc2cc(OC)ccc2o1 : 49
CCN(Cc1cccs1)C(=O)COc1ccc(C)cc1 : 545

I: Cc1ccc(OCC(=O)N(Cc2cccs2)c2ccn[nH]2)cc1
II: Cc1ccc(/C=C/C(=O)N(Cc2cccs2)c2ccn[nH]2)cc1
Request: Parameter metric = solubility thermodynamic. Return the lower-valued option from I and II . Answer by stating the label of the chosen item.
Result: II

P: CCN(Cc1cccs1)C(=O)c1cc2cc(C)ccc2o1
Q: CCN(Cc1cccs1)C(=O)COc1ccc2c(c1)COC2
Request: Recorded solubility thermodynamic values differ for P and Q ; which one is higher? Answer by stating the label of the chosen item.
Result: Q

Ref: ChEMBL document CHEMBL4052716
